Record form. Attribute: logP. Fill in for each entry.
Experiment: Lipophilicity (logP), partition in n-octanol/PBS (pH 7.4)
Type: physicochemical
Settings: pH 7.4
Procedure: The partition coefficient was measured for each compound in a biphasic system of n-octanol/PBS (pH 7.4). […] The activity of each phase (corresponding to the content of radiobioconjugate) was determined by measuring γ-radiation, using a well-type NaI(Tl) detector. P was calculated as the ratio of activity in the organic versus aqueous phases (as an average value from at least three independent measurements). […]
Where a SMILES comes first, the peptide text is derived from it. [ ]: non-standard residue; d: D form. The star is where a group is joined. DOTA = O=C(O)CN1CCN(CC(=O)O)CCN(CC(=O)*)CCN(CC(=O)O)CC1; Met(O2) = CS(=O)(=O)CC[C@H](N)C(=O)O; 2Thi = N[C@@H](Cc1cccs1)C(=O)O
Please reply with the value in numeric form only.

So, CC(C)C[C@H](NC(=O)CNC(=O)[C@H](Cc1cccs1)NC(=O)[C@H](Cc1ccccc1)NC(=O)[C@H](CCC(N)=O)NC(=O)[C@H](CCC(N)=O)NC(=O)CN1CCN(CC(=O)O)CCN(CC(=O)O)CCN(CC(=O)O)CC1)C(=O)N[C@@H](CCS(C)(=O)=O)C(N)=O [2e, [^177Lu]DOTA-[Thi^8,Met(O2)^11]SP(5–11), metal not drawn] ({DOTA}-QQF[2Thi]GL[Met(O2)]-NH2) ? Its logP was -3.94

// logP value for CC(C)C[C@H](NC(=O)CNC(=O)[C@H](Cc1cccs1)NC(=O)[C@H](Cc1ccccc1)NC(=O)[C@H](CCC(N)=O)NC(=O)[C@H](CCC(N)=O)NC(=O)[C@@H]1CCCN1C(=O)[C@H](CCCCN)NC(=O)[C@@H]1CCCN1C(=O)[C@H](CCCNC(=N)N)NC(=O)CN1CCN(CC(=O)O)CCN(CC(=O)O)CCN(CC(=O)O)CC1)C(=O)N[C@@H](CCS(C)(=O)=O)C(N)=O [2b, [^177Lu]DOTA-[Thi^8,Met(O2)^11]SP(1–11), metal not drawn] : -5.28
